# target: GmRLK18-1 LRR domain expressed in E. coli (soybean (Glycine max))
# protocol summary: fluorescence polarisation; FITC-labelled peptides in 20 mM phosphate buffer pH 6.9 in a cuvette, 5 nM aliquots, increase in polarisation; baseline of non-CLE and non-LRR peptides subtracted; Kd from double reciprocal Scatchard plots; 3 repeats with 3 protein preparations; apparent for peptide L
No end group written: not given here.
For each entry below, report its Kd value.
Expressed in nM, but write only the number.

## Input Please report the measured Kd for CTLSRLKTLDISNNALNGNLPATLSNLS (not fully specified (N-terminus); also: labeled with FITC) [LRR peptide L of GmRLK18-1]
## Output 36

## Input Please report the measured Kd for KRLSPSGPDPHHH (not fully specified (N-terminus); also: labeled with FITC) [CLE peptide N]
## Output 30

## Input Kindly indicate its recorded Kd. Item: RLAPEGPDPHHN (not fully specified (N-terminus); also: labeled with FITC) [CLE peptide 30]
## Output 44

## Input Give the measured Kd for RLAPGGPDPQHN (not fully specified (N-terminus); also: labeled with FITC) [CLE peptide 2]
## Output 45

## Input Determine its reported Kd: RTVPSGPDPLHH (not fully specified (N-terminus); also: labeled with FITC) [CLE peptide 3]
## Output 29
